Each entry below carries its reported apparent KD of MS2 coat protein.
- System: MS2 coat protein
- Assay Comment: apparent KD of MS2 coat protein; designed switch direction (-1 OFF switch, 1 ON switch): 1; higher = weaker reporter binding
- Condition Context: input ligand: FMN 200 uM
Kindly report the value followed by its unit.

Recorded results for 2 sequences are shown here.
>>> result("AACCCAGUGGAAGGAUAUGGCACCUUAUUGGUGCCAGAAGGUCCUAACAUGAGGAUCACCCAUGUGGGCCGGUCGAAAGACCGG [Fiskers NG1ss - 10] (Eterna round: R96, puzzle: Same State NG 1)")
"101 nM"
>>> result("ACGUGGCUGCCGCAGGAUAUACCCUGUUCCACAUGAGGAUCACCCAUGUUUACGAACUAUGAGAGGUAGAAGGGUGGAUGUCAUU [Beenvean] (Eterna round: R96, puzzle: Same State 2)")
"12.2 nM"

Exam item: Quick one: apparent KD of MS2 coat protein of UUAAUGAUGAAAGGAUAUACAUGAGGAAUUCUCGUAGAAGGUUCAUGACAUGAGGAUCACCCAUGUAUCGCUCCGUAGAGCGUA [JL SSNG1 1.13] (Eterna round: R96, puzzle: Same State NG 1) ?
Marked response: 713 nM

###

apparent KD of MS2 coat protein listing for selected sequences.
- System: MS2 coat protein
- Assay Comment: apparent KD of MS2 coat protein; higher = weaker reporter binding
- Condition Context: Eterna round: R107; input ligand: theophylline 20 uM
# output: bare number, implied unit nM

>>> result("AUGCCGGGCCGAAGGAGCGCAAUAGAAUGACAUGAGGAUCACCCAUGUGUGUGAUGUGGGUUGCAGGUAGGUCGCGGCCCGGCAU [#12 Exclusion - Arginine B]")
80.2

Exam item: Any idea what its apparent KD of MS2 coat protein is? The sequence is AGACAUGAGGAUCACCCAUGUAGUAUGGAUACCAGAUCCAGAUUUAUCCCUUGGCAGCUGUGGUACAGCGAUGGAUCGCUCCUAG [Exclusion - Theophylline A (Freestyle 11)]
Marked response: 34

Exam item: So what's the measured apparent KD of MS2 coat protein for this one? AGUCUUGUAGGAAGGAGCGCAUACUUCACAUGAGGAUCACCCAUGUCAAGACGUGAGUCAGUGCAGGUAGGUCGCCUAACUAAGA [Same State - Arginine B (Freestyle 14)]
Marked response: 28.7

Exam item: Form field: reported apparent KD of MS2 coat protein of ACAUGAGGAUCACCCAUGUGUGUAAGUCCUCGAGGACCGGUACGGCCGCCACUCGAACGAGUGUAACAUACUUGUUACAAGUAUG [SS Trp A s3]
Marked response: 39.9

###

- Tested on: MS2 coat protein
- Assay Comment: apparent KD of MS2 coat protein; designed switch direction (-1 OFF switch, 1 ON switch): -1; higher = weaker reporter binding
- Condition Context: input ligand: microRNA oligo, concentration not stated
Result Type: apparent KD of MS2 coat protein (nM)
Just the number in nM, nothing appended.

# annotated cases, reported apparent KD of MS2 coat protein shown
>>> result("GCGCCAUCGUGAGAUGGCGUAAAUACAUGAGGAUCACCCAUGUAGGAUAUCGAUUGCUUUGCAGUCGAGAAGGGCAAGGUAUUU [JL ENG3 3.90] (Eterna round: R96, puzzle: Exclusion NG 3)")
18.1
>>> result("ACAUGAGGAUCACCCAUGUAAUGAUGGGUACUAUAUUAUUCGUAGGAUAUCGUUGUUAGUUUGUGCGAGAAGGACGUUUGCCUU [JR_ExcNG3_Sub056] (Eterna round: R96, puzzle: Exclusion NG 3)")
667
>>> result("CUGCUCCGUGUAGGAUAUGCAUACUCCCAUUAUGCAGAAGGACAUGAGGAUCACCCAUGUAUGUUAUUAUCAUGUGUUGCAUGC [Design 11] (Eterna round: R96, puzzle: Exclusion NG 1)")
33.9
>>> result("UGAUCAGACCGAGGAUAUAUAUGGAGGACGCACGUGAGUGCGUCCACUACAUGAGGAUCACCCAUGUAGAAGGCGGUCUGAUCU [JL ENG2 1.98] (Eterna round: R96, puzzle: Exclusion NG 2)")
9.6
>>> result("AUUUAUAAUGUAGGAUAUGGAUUCGAAACGUAUCCAGAAGGACAUGAGGAUCACCCAUGUACAUGAGGAUCACCCAAUUUAUUA [Fiskers ExNg1 - 10] (Eterna round: R96, puzzle: Exclusion NG 1)")
46.7

Exam item: // lookup apparent KD of MS2 coat protein | system=MS2 coat protein | key= GACUGCCGAGGAUAUACAUGAGGAUCACCCAUGUGCUUCAGUAUCGAAAGAUGCAUGGGUAGAAGGCGGUAGUC [LRO-Excl3-10] (Eterna round: R96, puzzle: Exclusion 3)
Marked response: 627

Exam item: Lookup: apparent KD of MS2 coat protein / MS2 coat protein / UUGUUAUAUGUAGGAUAUGCGUAUUAUUAUUGGGCAGAAGGACAUGAGGAUCACCCAUGUAUGUUGUUGUUAUAUAUUAUAUAU [Title] (Eterna round: R96, puzzle: Exclusion NG 1)
Marked response: 34

###

- Test system: K4 kissing-loop RNA reporter
- Assay Comment: apparent KD of K4 kissing-loop reporter; higher = weaker reporter binding
- Condition Context: Eterna round: R107; input ligand: tryptophan 2.4 mM
Result Type: apparent KD of K4 kissing-loop reporter (nM)
Return type: number; implicit unit nM.

Below, 5 sequences whose answers are already recorded.
>>> result("ACUAUCGAAAGAUAGUUCCCAGAGCUAGUAGAGGAUAUCUGGAAACAGAGAAGGCUACAAGAGUGAUGUUCUUCUAGCUUUGGGA")
349
>>> result("AGUGACGUCGCGGCCGCCACUGAAAUGACAGUGAUGUUGUCAAAAGAAAGUGAUGUUAAGAAAUGCAGGACCGGGUGAUAGAAAA [semi-accidental]")
125
>>> result("GGAUGGUAGGCGGCCGCCACUAAAACUGAACAAAUAUAAACCAGUGAUGUUGGUAUGAUGAAGUAUAGGACCGGGCCUAGAUAGA [Exclusion - Tryptophan B (Freestyle 1)]")
122
>>> result("UACACGACUCGUGUAAACCGAGGUAACAGGCAGGAUAUGUAACGGAACAGAAGGGCCAUGUAGCGUGUCCAGUGAUGUUGGAUGC [Betilare]")
173
>>> result("AGGCACGAGCAAGGAUAUUGAGUAGAGUGAUGUUCUGCCUGGGUUGGCUCGUAAGAGCCUUCUCAGCGAGAAGGUGCUCGUGCCU [#2 Same State - FMN A Attempt #23 (HarryS)]")
636

Then there is this sequence:
Exam item: What does the data say about its apparent KD of K4 kissing-loop reporter? Entry: GGGAGGAAAAUUUUCCUCAAAAGUUGGCUACAGGAUAUCGUGGGAAUGAGAAGGGUAACCGAGACGCCCAGUGAUGUUGGGUGCC [Antegete]
Marked response: 245

###

- Tested on: K4 kissing-loop RNA reporter;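 note: bound reporter read as fluorescence of individual clusters on recovered sequencing chips by microscopy, with normalized cluster intensities fitted with a binding model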
- Assay Comment: apparent KD of K4 kissing-loop reporter; higher = weaker reporter binding
- Condition Context: Eterna round: R107; input ligand: FMN 200 uM
Result Type: apparent KD of K4 kissing-loop reporter (nM)
Provide only the numeric value, understood in nM.

These recorded examples may help you get a feel for the data.
>>> result("AAAAUAAAAGCAGUCAUCGGAGUGAUGUUCCGAGGACCGGUACGGCCGCCACUCGACCAGACAAAGUCUGGAUGGCGAGACUGCA [#SwitchBubble 18 #K4Early]")
83.6
>>> result("UGACUGGACUGAAGGAGCGCUAAACUCCUAGUGAUGUUAGGAUAACGAGACAAAGUCUCGAGGCAGGUAGGUCGCAGUCUAGUCU")
128

Attention now shifts to the item below.
Exam item: Entry UAUAUAUGAUGUGAUACCAGUGAAAAGCCAGUGAUGUUGGAGGAGCUGGUAUAUAAAUAAGACCCUUGGCAGCACAAUCACGUAU [#01 K4 Theophylline B Exclusion] : reported apparent KD of K4 kissing-loop reporter = ?
Marked response: 227

###

Measured apparent KD of MS2 coat protein of individual entries
- Tested on: MS2 coat protein
- Assay Comment: apparent KD of MS2 coat protein; designed switch direction (-1 OFF switch, 1 ON switch): 1; higher = weaker reporter binding
- Condition Context: Eterna round: R95; input ligand: none
A number alone suffices; assume nM.

>>> result("AAUGUCUCACAUGAGGAUCACCCAUGUCUUUGGAUGAAGCUUUUUGCUCGUCUUCAUUUUGCUCGUCUUACCCAUGU [SBY_1] (puzzle: Sensor for hsa-mir-208a version 2)")
52.7
>>> result("UUGGUGUAGAUACAGGAUAUGUUGCUUGUAACAUGAGGAUCACCCAUGUAUCUAUGAGAUUAAAUGCAGAAGGGUGCACAUCACU [salish99_ss2_r3_089] (puzzle: Same State 2)")
1020
>>> result("AGUCCAGCCUGAGCUGGACAAAAGCAUGUACAUGAGGAUCACCCAUGUCAUGUGCAAGCUUUUUGCUCGUCUUAAAA [Zipper 46 - 6] (puzzle: Sensor for hsa-mir-208a)")
67.9
>>> result("CGUAGGUAGCUGGAGGAUAUCCGAGUGGUAACAUGAGGAUCACCCAUGUGAUGUGAGGAACAUGAGGAGAAGGCUAGCUGCCUGC [JL-ss2-3.12 JL mod] (puzzle: Same State 2)")
38.2

Exam item: # lookup: apparent KD of MS2 coat protein of ACGUCGAGAUCACAGGAUAUACUCACAUCUACAUGAGGAUCACCCAUGUAGCGGUAUUCCGGUGCGUAGAAGGGUGAUCGACGAC [Same State 2 - Mod of Artece v.5] (puzzle: Same State 2)
Marked response: 11.9
